Here, compounds appear alongside Ki reported for 5-hydroxytryptamine receptor 1A (Homo sapiens, UniProt P08908) in the literature.
API: value field is a number in nM; no unit string.

Some entries whose results are on file:
Cn1cnc2c1C(=O)N(CCN1CCC(c3noc4ccccc34)CC1)CC2 :: 327
CCOC(=O)c1sc(-c2cnc(N3CCN(CCCCc4c[nH]c5ccc(C#N)cc45)CC3)nc2)nc1C :: 0.99
N#Cc1ccc2[nH]cc(CCCN3CCN(c4ccc(N5CCOCC5=O)cc4)CC3)c2c1 :: 3.2

Could you now look at the following compound, please?
Enquiry: Query the reported Ki for 5-hydroxytryptamine receptor 1A (Homo sapiens, UniProt P08908); item: Cn1nc2c(c1Br)C(=O)N(CCN1CCC(c3noc4ccccc34)CC1)CC2
Return: 3.48

* * *

pKi: −log10 of the molar value.
pKi for 5-hydroxytryptamine receptor 1A (Homo sapiens, UniProt P08908) - collated from the literature.
Label not fulfilled if pKi falls below 9; label fulfilled in every other case.

Illustrative cases are given below, each with its answer.
Cc1ncc(CNC(=O)c2cc3cccc(N4CCN(CCc5ccccn5)CC4)c3o2)cn1 :: not fulfilled
O=C(NCc1cccnc1)c1cc2cccc(N3CCN(CCc4ccccn4)CC3)c2o1 :: not fulfilled
COc1ccc(OC)c2c1C[C@H]1c3cc4c(cc3CCN1C2)OCCO4 :: not fulfilled

Enquiry: Does the reported pKi for O=C1c2cnc(Br)cc2CCN1CCN1CCN(c2nsc3ccccc23)CC1 fall at or above the 9 mark?
Return: fulfilled

* * *

Here is a set of compounds with reported Ki for 5-hydroxytryptamine receptor 1A (Homo sapiens, UniProt P08908), compiled from the literature.
Labelling: Ki reported below 7 nM becomes yes (1); at or above becomes no (0).

Before answering, review these 5 worked examples.
Cc1cc2c(cn1)C(=O)N(CCN1CCN(c3noc4ccccc34)CC1)CC2(C)C :: no (0)
O=C1c2cnccc2C2(CC2)CN1CCN1CCN(c2noc3ccccc23)CC1 :: no (0)
CC(C)c1nc2c(o1)C(=O)N(CCN1CCC(c3noc4ccccc34)CC1)CC2 :: no (0)
Cn1cnc2c1CCCN(CCN1CCC(c3noc4ccccc34)CC1)C2=O :: no (0)
CC(C)c1ncc2c(n1)CCN(CCN1CCN(c3nsc4ccccc34)CC1)C2=O :: no (0)

Enquiry: Hello, is Ki of the following compound strictly smaller than 7 nM? N#Cc1ccc2[nH]cc(CCCCN3CCN(c4ccc(N5CCCNC5=O)cc4)CC3)c2c1
Return: yes (1)

Enquiry: Please determine if Cc1ncc2c(n1)CCN(CCN1CCN(c3nsc4ccccc34)CC1)C2=O is below 7 nM in terms of Ki.
Return: yes (1)

Enquiry: Take the compound N#Cc1ccc2[nH]cc(CCN3CCN(c4ccc(-n5cc(F)cc(F)c5=O)cc4)CC3)c2c1 and say whether its Ki is less than 7 nM.
Return: no (0)

Enquiry: Take the compound O=C(NC1CCN(c2ncccc2Cl)CC1)c1cc2cccc(N3CCN(CCc4ccccn4)CC3)c2o1 and say whether its Ki is less than 7 nM.
Return: yes (1)

* * *

Endpoint summary: pKi, system: 5-hydroxytryptamine receptor 1A (Homo sapiens, UniProt P08908), multiple sources combined.
Just the number, please; pKi means minus log10 of the concentration in mol/L.

Examples with their reported pKi follow.
C[C@H](CN(C(=O)[C@@H]1CC2CCC1CC2)c1ccccn1)N1CCN(c2cccc3[nH]ccc23)CC1 :: 9.16
Cn1cc2c(n1)C(=O)N(CCN1CCN(c3nsc4ccccc34)CC1)CC2 :: 8.90
COc1cccc(CNC(=O)c2cc3cccc(N4CCN(CCc5ccccn5)CC4)c3o2)c1 :: 9.04

// moving on: another record for pKi
Enquiry: Would you mind telling me what pKi value was observed for O[C@@H]1c2ccccc2C[C@H]1N1CCN(c2cccc3c2OCCO3)CC1 (relative stereo) ?
Return: 8.76
